- Test system: Saccharomyces cerevisiae
- protocol-description: protein stability index of tFT-peptide fusion (C-terminal peptide) (PSI (0-1 scale)); higher = more stable (slower turnover)
- condition: genetic background: das1 deletion; temperature: 30 C
Each entry below carries its reported protein stability index.
Provide a numeric answer; units are not to be included.

SPLASLRFWCFC :: 0.65
SLLLLSLCRFVG :: 0.6
TKDFVIKKTKIS :: 0.641

Pending sequence:
Problem: For the record HCLLQDVPPTLH , what value of protein stability index is listed for Saccharomyces cerevisiae?
Result: 0.711

====

- Tested on: Saccharomyces cerevisiae
- protocol-description: protein stability index of tFT-peptide fusion (C-terminal peptide) (PSI (0-1 scale)); higher = more stable (slower turnover)
- condition: genetic background: cdc34-1; temperature: 37 C
endpoint-label: protein stability index

Known protein stability index results, listed for orientation:
RLMVHQHTIPVR :: 0.463
ASPLRLFIPFLF :: 0.678
FIVVSFCFFLFF :: 0.331
LCFVFVLGFFAF :: 0.379
FICYDRILTVYY :: 0.479
SPPPLFLIVLHL :: 0.495
LYCGLIFFLRGV :: 0.626
YSCFFFLFSFFF :: 0.498
VHHAFLPYTLVR :: 0.502
GFGRDHGNDTGP :: 0.712

Problem: Reported protein stability index, sequence YFVLVRLICFLL : ____
Result: 0.347

Problem: What protein stability index value was documented for this sequence, VLPLRCSWAAQG ?
Result: 0.693

Problem: # query: protein stability index of entry LGIPKLLCFVCT
Result: 0.424

Problem: I have this sequence here, WEPILLELELCV , and I need its recorded protein stability index.
Result: 0.498

Problem: Requested read-out: protein stability index. Entry: VCTFLLVSFFLS
Result: 0.223

====

- Tested on: Saccharomyces cerevisiae
- protocol-description: protein stability index of tFT-peptide fusion (C-terminal peptide) (PSI (0-1 scale)); higher = more stable (slower turnover)
- condition: genetic background: wild type; temperature: 30 C
endpoint-label: protein stability index
Respond with the number and no other words.

Solved cases (5 shown):
PPPSPPAQSLRS :: 0.759
SYVYMIQRANAV :: 0.561
LWGSGRNWLLWR :: 0.7
LPHLSPPPLAQL :: 0.686
PPPPPPLPSLPR :: 0.678

Problem: Request the reported protein stability index associated with SGRMAIYVFGVV
Result: 0.579

====

- System: Saccharomyces cerevisiae
- protocol-description: protein stability index of tFT-peptide fusion (C-terminal peptide) (PSI (0-1 scale)); higher = more stable (slower turnover)
- condition: genetic background: wild type; temperature: 30 C
Classification field: condition met = protein stability index at or over 0.7; condition not met = protein stability index under 0.7.

Completed entries (count: 5):
IFNATASNPFGF [SLA1 C-terminal 12 aa] :: condition met
ALLILVLGWFYR [SCS2 C-terminal 12 aa] :: condition not met
HVAPYAIIPFII [DFG10 C-terminal 12 aa] :: condition not met
LDAILLDIICND [MDM1 C-terminal 12 aa] :: condition met
ESLSNEAALKAN [RPO31 C-terminal 12 aa] :: condition not met

Problem: Tell me whether protein stability index is at least 0.7 here: LITSHCCYWNKR [YBL039C-A C-terminal 12 aa]
Result: condition not met

Problem: protein stability index >= 0.7 for FDRVRLLVDKIT [HIR3 C-terminal 12 aa] ?
Result: condition not met

Problem: # check: protein stability index of RLKTGKKKGGPK [RRP14 C-terminal 12 aa] is greater than or equal to 0.7
Result: condition met

Problem: Reported protein stability index at or above 0.7? GSVCFIMDYFTG [VPS62 C-terminal 12 aa]
Result: condition not met

Problem: Given the entry SELKGFVDEVDL [TFC1 C-terminal 12 aa] , answer whether its protein stability index meets or surpasses 0.7.
Result: condition met

Problem: Say whether QIEWVDINRVTY [RAD50 C-terminal 12 aa] shows protein stability index of 0.7 or more.
Result: condition met

Problem: For this sequence, is measured protein stability index 0.7 or higher? LFYQTIGEFASL [ATF2 C-terminal 12 aa]
Result: condition met

Problem: Kindly determine if protein stability index recorded for FIVAEYIQQKKV [SRB4 C-terminal 12 aa] is above or exactly 0.7.
Result: condition not met

Problem: Does the sequence TDELWEMLLDQA [MET12 C-terminal 12 aa] have recorded protein stability index that is 0.7 or more?
Result: condition met

Problem: Is protein stability index at least 0.7? Consider SLYPRFSGRCKP [DED81 C-terminal 12 aa]
Result: condition not met

Problem: Does NQKKKFKMEFRG [SAP30 C-terminal 12 aa] have a reported protein stability index of at least 0.7?
Result: condition not met

Problem: Could you please find out whether MKGPAALWDVQF [ARP9 C-terminal 12 aa] has protein stability index that meets 0.7 or exceeds it?
Result: condition met

Problem: Confirm if protein stability index reported for the sequence GHNDGDINVWTL [CAF4 C-terminal 12 aa] is 0.7 or above.
Result: condition met

Problem: In plain terms: is recorded protein stability index at least 0.7 for PSGNIVMERLDE [UBX3 C-terminal 12 aa] ?
Result: condition not met

Problem: Would you say VTGPHDRWYVVG [ATG14 C-terminal 12 aa] shows protein stability index at minimum 0.7?
Result: condition not met

Problem: Form field: protein stability index at least 0.7? Entry: PAAWRALTQYIS [PTH1 C-terminal 12 aa]
Result: condition not met

Problem: Check this sequence for protein stability index at or above 0.7: MELWYTCLSKNL [YCR050C C-terminal 12 aa]
Result: condition not met

Problem: hey, is protein stability index for this one >= 0.7? IDMLKMSNAEEY [YLR012C C-terminal 12 aa]
Result: condition not met
